Each entry below carries its recorded mortality at 10 µg/larva.
Test system: rice stem borers (Chilo suppressalis Walker)
Assay: Mortality test with rice stem borers by topical application method
Assay type: in vivo
Details: 24 h

Would you please look over these solved cases?
Note to self: mortality at 10 µg/larva recorded for CC1(C)[C@@H](C=C(Cl)Cl)[C@@H]1C(=O)OCc1cccc(Oc2ccc(Cl)cc2)c1 (relative stereo) [Compound (1) trans-] was 100%

Note to self: mortality at 10 µg/larva recorded for CC1(C)[C@H](C=C(Cl)Cl)[C@H]1C(=O)OC(C#N)c1cccc(Oc2ccc(Cl)cc2)c1 (relative stereo) [Compound (G) trans-] was 100%

Note to self: mortality at 10 µg/larva recorded for C#CC(OC(=O)[C@@H]1[C@H](C=C(Cl)Cl)C1(C)C)c1cccc(Oc2ccc(Cl)cc2)c1 (relative stereo) [Compound (2) cis-] was 100%

Note to self: mortality at 10 µg/larva recorded for CC1(C)C(C=C(Cl)Cl)C1C(=O)OCc1cccc(Oc2ccccc2)c1 (stereo not drawn) was 100%

New cases:
Note to self: mortality at 10 µg/larva recorded for CC1(C)C(C=C(Br)Br)C1C(=O)OC(C#N)c1cccc(Oc2ccccc2)c1 (stereo not drawn) was 100%

Note to self: mortality at 10 µg/larva recorded for CC1(C)[C@H](C(=O)OC(C#N)c2cccc(Oc3ccc(Cl)cc3)c2)[C@@H]1C=C(Cl)Cl (relative stereo) [Compound (G) cis-] was 100%

----------
Assay: Toxicity test with water-fleas
Format: in vivo, Daphnia pulex
Conditions: water, 25±1° C., read-out: TLm, Water-flea (6 hrs.)
experimental readout: LC50 at 6 h

Note to self: LC50 at 6 h recorded for CC1(C)[C@H](C(=O)OC(C#N)c2cccc(Oc3ccc(Cl)cc3)c2)[C@@H]1C=C(Cl)Cl (relative stereo) [Compound (G) cis-] was 5 µg/mL

New cases:
Note to self: LC50 at 6 h recorded for CC1(C)[C@H](C=C(Cl)Cl)[C@H]1C(=O)OC(C#N)c1cccc(Oc2ccc(Cl)cc2)c1 (relative stereo) [Compound (G) trans-] was 1.7 µg/mL

Note to self: LC50 at 6 h recorded for C#CC(OC(=O)[C@@H]1[C@@H](C=C(Cl)Cl)C1(C)C)c1cccc(Oc2ccc(Cl)cc2)c1 (relative stereo) [Compound (2) trans-] was > 40 µg/mL

Note to self: LC50 at 6 h recorded for C#CC(OC(=O)C1C(C=C(Cl)Cl)C1(C)C)c1cccc(Oc2ccc(Cl)cc2)c1 (stereo not drawn) [Compound (2) cis-/trans- = 50:50] was > 40 µg/mL

----------
Each entry below carries its recorded selectivity ratio.
Test: Fish toxicity safety factor (TLm divided by maximum concentration in cover water)
Parameters: species or system carp
Settings: in vivo, TLm / maximum concentration in cover water at LC50 application (100 l per 10 ares, 5 cm depth)
Just the number, please, no unit attached.

Note to self: selectivity ratio recorded for CC1(C)C(C=C(Cl)Cl)C1C(=O)OC(C#N)c1cccc(Oc2ccccc2)c1 (centres unmarked) was 0.01

Note to self: selectivity ratio recorded for CC1(C)C(C=C(Cl)Cl)C1C(=O)OCc1cccc(Oc2ccccc2)c1 (centres unmarked) was 0.01

Note to self: selectivity ratio recorded for CC1(C)[C@@H](C=C(Cl)Cl)[C@@H]1C(=O)OCc1cccc(Oc2ccc(Cl)cc2)c1 (relative stereo) [Compound (1) trans-] was 3.5

Note to self: selectivity ratio recorded for CC1(C)C(C=C(Cl)Cl)C1C(=O)OCc1cccc(Oc2ccc(Cl)cc2)c1 (stereo not drawn) [Compound (1) cis-/trans- = 20:80] was 2.5

Note to self: selectivity ratio recorded for C#CC(OC(=O)[C@@H]1[C@H](C=C(Cl)Cl)C1(C)C)c1cccc(Oc2ccc(Cl)cc2)c1 (relative stereo) [Compound (2) cis-] was 2.1

Note to self: selectivity ratio recorded for CC1(C)[C@H](C(=O)OC(C#N)c2cccc(Oc3ccc(Cl)cc3)c2)[C@@H]1C=C(Cl)Cl (relative stereo) [Compound (G) cis-] was 0.01

Note to self: selectivity ratio recorded for CC(C)C(C(=O)OC(C#N)c1cccc(Oc2ccccc2)c1)c1ccc(Cl)cc1 (centres unmarked) [Compound (E), Fenvalerate] was 0.001

Note to self: selectivity ratio recorded for CC1(C)C(C=C(Cl)Cl)C1C(=O)OC(C#N)c1cccc(Oc2ccc(Cl)cc2)c1 (stereo not drawn) [Compound (G) cis-/trans- = 50:50] was 0.04

Note to self: selectivity ratio recorded for CC1(C)[C@H](C=C(Cl)Cl)[C@H]1C(=O)OC(C#N)c1cccc(Oc2ccc(Cl)cc2)c1 (relative stereo) [Compound (G) trans-] was 0.12

Note to self: selectivity ratio recorded for CC(C)C(C(=O)OC(C#N)c1cccc(Oc2ccc(Cl)cc2)c1)c1ccc(Cl)cc1 (centres unmarked) was 0.0071

----------
Each entry below carries its recorded mortality at 10 ng.
Tested on: green rice leafhoppers (Nephotettix cincticeps Uhler)
Test: Mortality test with green rice leafhoppers by topical application method
Details: Nephotettix cincticeps, in Oryza sativa, 24 h, read-out: Pesticidal effect, green rice leafhopper
I only need the number, in %, no unit after it.

Would you please look over these solved cases?
The value of mortality at 10 ng recorded for CC1(C)C(C=C(Cl)Cl)C1C(=O)OCc1cccc(Oc2ccc(Cl)cc2)c1 (stereo not drawn) [Compound (1) cis-/trans- = 50:50] when tested on green rice leafhoppers (Nephotettix cincticeps Uhler) reads 100

The value of mortality at 10 ng recorded for C#CC(OC(=O)C1C(C=C(Cl)Cl)C1(C)C)c1cccc(Oc2ccccc2)c1 (stereo not shown) [Compound (F)] when tested on green rice leafhoppers (Nephotettix cincticeps Uhler) reads 100

The value of mortality at 10 ng recorded for CC1(C)C(C=C(Cl)Cl)C1C(=O)OC(C#N)c1cccc(Oc2ccc(Br)cc2)c1 (stereo not shown) [Compound (H)] when tested on green rice leafhoppers (Nephotettix cincticeps Uhler) reads 100

The value of mortality at 10 ng recorded for CC1(C)C(C=C(Cl)Cl)C1C(=O)OCc1cccc(Oc2ccccc2)c1 (stereo not shown) [Compound (B), Permethrin] when tested on green rice leafhoppers (Nephotettix cincticeps Uhler) reads 80

The value of mortality at 10 ng recorded for CC(C)=CC1C(C(=O)OCc2cccc(Oc3ccccc3)c2)C1(C)C (stereo not shown) [Compound (A), Phenothrin] when tested on green rice leafhoppers (Nephotettix cincticeps Uhler) reads 80

The value of mortality at 10 ng recorded for CC1(C)C(C=C(Cl)Cl)C1C(=O)OC(C#N)c1cccc(Oc2ccc(Cl)cc2)c1 (stereo not drawn) [Compound (G) cis-/trans- = 50:50] when tested on green rice leafhoppers (Nephotettix cincticeps Uhler) reads 100

Consider the record given below.
The value of mortality at 10 ng recorded for CC1(C)C(C=C(Cl)Cl)C1C(=O)OC(C#N)c1cccc(Oc2ccccc2)c1 (stereo not shown) [Compound (C), Cypermethrin] when tested on green rice leafhoppers (Nephotettix cincticeps Uhler) reads 100

----------
Test system: brown planthoppers (Nilaparvata lugens Stal)
Assay: Utility Example-1: LC50 on adult brown planthoppers on dipped rice plants
Type: in vivo
Settings: Nilaparvata lugens, 24 h, 25° C., read-out: Pesticidal activity LC50
Threshold 600 µg/mL: LC50 strictly smaller gives y, otherwise n.

Consider the molecule C#CC(OC(=O)C1C(C=C(Cl)Cl)C1(C)C)c1cccc(Oc2ccc(Cl)cc2)c1 (stereo not drawn) [Compound (2) cis-/trans- = 50:50] . Is its LC50 strictly less than 600 µg/mL? y

Consider the molecule CC1(C)C(C=C(Cl)Cl)C1C(=O)OCc1cccc(Oc2ccccc2)c1 (stereo not drawn) . Is its LC50 strictly less than 600 µg/mL? n

New cases:
Consider the molecule CC(C)C(C(=O)OC(C#N)c1cccc(Oc2ccc(Cl)cc2)c1)c1ccc(Cl)cc1 (stereo not drawn) . Is its LC50 strictly less than 600 µg/mL? n

Consider the molecule CC1(C)[C@H](C(=O)OC(C#N)c2cccc(Oc3ccc(Cl)cc3)c2)[C@@H]1C=C(Cl)Cl (relative stereo) [Compound (G) cis-] . Is its LC50 strictly less than 600 µg/mL? n

Consider the molecule CC1(C)C(C=C(Cl)Cl)C1C(=O)OCc1cccc(Oc2ccc(Cl)cc2)c1 (stereo not drawn) [Compound (1) cis-/trans- = 20:80] . Is its LC50 strictly less than 600 µg/mL? y

Consider the molecule CC1(C)[C@H](C=C(Cl)Cl)[C@H]1C(=O)OC(C#N)c1cccc(Oc2ccc(Cl)cc2)c1 (relative stereo) [Compound (G) trans-] . Is its LC50 strictly less than 600 µg/mL? y

----------
Each entry below carries its recorded mortality at 13 ppm.
Test system: tobacco cutworm (Prodenia litura)
Experiment: Utility Example-5: spray on soy bean leaves, tobacco cutworm larvae
Type: in vivo
Details: 48 h; 13 ppm; 2 days
I only need the number, in %, no unit after it.

Would you please look over these solved cases?
Note to self: mortality at 13 ppm recorded for CC1(C)C(C=C(Cl)Cl)C1C(=O)OCc1cccc(Oc2ccccc2)c1 (stereo not drawn) was 90

Note to self: mortality at 13 ppm recorded for CC1(C)C(C=C(Cl)Cl)C1C(=O)OCc1cccc(Oc2ccc(Cl)cc2)c1 (stereo not drawn) [Compound (1) cis-/trans- = 50:50] was 100

Note to self: mortality at 13 ppm recorded for CC1(C)C(C=C(Cl)Cl)C1C(=O)OCc1cccc(Oc2ccc(Br)cc2)c1 (stereo not drawn) was 100

Note to self: mortality at 13 ppm recorded for CC1(C)C(C=C(Cl)Cl)C1C(=O)OC(C#N)c1cccc(Oc2ccc(Br)cc2)c1 (stereo not drawn) was 100

Note to self: mortality at 13 ppm recorded for C#CC(OC(=O)C1C(C=C(Cl)Cl)C1(C)C)c1cccc(Oc2ccc(Br)cc2)c1 (stereo not drawn) was 90

Consider the record given below.
Note to self: mortality at 13 ppm recorded for C#CC(OC(=O)C1C(C=C(Cl)Cl)C1(C)C)c1cccc(Oc2ccc(Cl)cc2)c1 (stereo not drawn) [Compound (2) cis-/trans- = 50:50] was 100
